# target.under.test: cysteines in MDA-MB-231 and Ramos cells (Homo sapiens)
# assay.method.text: Competitive isoTOP-ABPP in situ (fragment-treated cells)
# Format: cell-based
# condition.notes: 200 μM, insitu, 231
Reported isoTOP-ABPP ratio P12268_C140 values for a set of compounds
observation.type: isoTOP-ABPP ratio P12268_C140

* O=C(CCl)NC12CC3CC(CC(C3)C1)C2 [compound 21] | 0.6
* COc1ccccc1OCCNC(=O)CCl [compound 28] | 0.6
* O=C(CCl)Nc1cccc2ncccc12 [compound 51] | 1.0
* C=CC(=O)N(Cc1cccnc1)c1cc(C(F)(F)F)cc(C(F)(F)F)c1 [compound 31] | 0.6
* Cc1ccc(C=C(C#N)C(=O)NCCN2CCOCC2)cc1 [compound 41] | 0.7
* O=C(CCl)N1CCN(S(=O)(=O)c2ccccc2F)CC1 [compound 10] | 0.7
* CC(C)CCOCCNC(=O)CCl [compound 27] | 0.5
* C=CC(=O)Nc1cc(F)c(N2CCN(C(=O)OC(C)(C)C)CC2)c(F)c1 [compound 38] | 1.2
* CC1CCc2ccccc2N1C(=O)CCl (centres unmarked) [compound 45] | 1.9
* O=C(CCl)NCCc1c[nH]c2ccccc12 [compound 13] | 0.7
* O=C(CCl)NC(=O)NC12CC3CC(CC(C3)C1)C2 [compound 12] | 1.2

* * *

# target.under.test: UCHL3 C95 (P15374) (Homo sapiens, UniProt P15374)
# Sequence (P15374 1-230): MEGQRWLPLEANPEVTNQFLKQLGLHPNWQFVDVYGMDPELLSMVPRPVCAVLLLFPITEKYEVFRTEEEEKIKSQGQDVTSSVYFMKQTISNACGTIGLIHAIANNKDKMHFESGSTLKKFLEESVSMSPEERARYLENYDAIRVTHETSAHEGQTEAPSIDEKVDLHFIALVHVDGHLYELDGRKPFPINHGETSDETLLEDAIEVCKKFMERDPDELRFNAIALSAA
# assay.method.text: Competitive isoTOP-ABPP, cell lysates
# Format: binding
# condition.notes: 500 μM, invitro, ramos
Consider the following compounds and their measured isoTOP-ABPP ratio, P15374_C95 readings.
observation.type: isoTOP-ABPP ratio, P15374_C95

- Cn1cc(S(=O)(=O)N2CCOCC2)cc1C(=O)NC(=O)CCl: 0.8
- O=C(CCl)NCCc1c[nH]c2ccccc12: 0.8
- O=C(CCl)NC(=O)NC12CC3CC(CC(C3)C1)C2: 0.5
- C=CC(=O)N(c1ccccc1)c1ccc(Br)cc1: 1.1

* * *

# target.under.test: cysteines in MDA-MB-231 and Ramos cells (Homo sapiens, UniProt Q15084)
# Sequence (Q15084 20-440): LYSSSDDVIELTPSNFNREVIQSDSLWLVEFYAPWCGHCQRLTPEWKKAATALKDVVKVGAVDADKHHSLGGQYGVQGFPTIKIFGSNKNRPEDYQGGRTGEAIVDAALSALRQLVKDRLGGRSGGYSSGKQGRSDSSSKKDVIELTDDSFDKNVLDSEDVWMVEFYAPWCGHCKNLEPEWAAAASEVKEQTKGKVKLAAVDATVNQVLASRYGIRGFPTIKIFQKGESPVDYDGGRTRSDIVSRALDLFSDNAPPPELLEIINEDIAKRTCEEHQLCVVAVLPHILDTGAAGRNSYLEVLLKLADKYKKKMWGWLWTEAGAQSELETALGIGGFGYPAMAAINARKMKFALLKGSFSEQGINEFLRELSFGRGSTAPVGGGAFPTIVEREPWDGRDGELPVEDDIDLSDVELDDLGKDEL
# assay.method.text: Competitive isoTOP-ABPP in situ (fragment-treated cells)
# Type: cell-based
# condition.notes: 200 μM, insitu, 231
observation.type: isoTOP-ABPP ratio, Q15084_C190

- O=C(CCl)N1CCN(S(=O)(=O)c2ccccc2F)CC1: 3.7
- C=CC(=O)N(Cc1cccnc1)c1cc(C(F)(F)F)cc(C(F)(F)F)c1: 1.0
- CC(C)CCOCCNC(=O)CCl: 1.0
- C=CC(=O)Nc1cc(F)c(N2CCN(C(=O)OC(C)(C)C)CC2)c(F)c1: 1.0
- O=C(CCl)NC(=O)NC12CC3CC(CC(C3)C1)C2: 20.0
- CC1CCc2ccccc2N1C(=O)CCl (stereo not shown): 2.8
- Cc1ccc(C=C(C#N)C(=O)NCCN2CCOCC2)cc1: 0.9
